test system: Fibroblast; assay: Multiplex assay against human fibroblast; format: toxicity, cell-based; conditions: 24 h, 1 µM, compound concentration 1 uM, replicate 2
Listing: Population Mitochondria Different-Phenotype (%) of selected molecules
Value expressed in %; do not type the unit.

> print(dat)
                                   molecule  assay.target  reading
1  Cc1c(CC(=O)O)c2cccnc2n1Cc1ccc(S(C)(=O)=O)cc1C(F)(F)F    Fibroblast        8
2       O=C(CCCc1ccccc1)Nc1nc2ccccc2c(=O)s1    Fibroblast        4
3  O=C1[C@H](Cc2ccc(O)cc2)N2C(=O)CCN(C(=O)NCc3ccccc3)[C@H]2CN1Cc1cccc2ccccc12    Fibroblast        8
4  Cc1noc(-c2ccc(-c3ccc(CC(=O)O)cc3)cc2)c1NC(=O)O[C@H](C)c1ccccc1Cl    Fibroblast        7
5  Br.CS(=O)(=O)Nc1c(O)ccc2c1CCCC2C1=NCCN1 (stereo unspecified)    Fibroblast        7

Recorded Population Mitochondria Different-Phenotype (%) (molecule Cl.NCCc1ccc(O)c(O)c1 [DOPAMINE HYDROCHLORIDE] ): 0
